Origin of values: paper PMC9706574

target: BRD4 (Homo sapiens); construct: endogenous in cells; host or cells: MDA-MB-231; experiment: BRD4 degradation by Western blot analysis in MDA-MB-231 cells; format: cell-based; details: 1 μM, 4 h, MDA-MB-231 cells
Entries annotated with measured Densitometry (% of control), BRD4-immunoreactive band relative to DMSO vehicle

| compound | target_or_test_system | endpoint_value |
| --- | --- | --- |
| Cc1sc2c(c1C)C(c1ccc(Cl)cc1)=N[C@@H](CC(=O)N(C)CC(=O)NCCOCCOc1cccc3c1C(=O)N(C1CCC(=O)NC1=O)C3=O)c1nnc(C)n1-2 (some centres unmarked) | BRD4 (Homo sapiens) | 83,9 % of control |
| Cc1sc2c(c1C)C(c1ccc(Cl)cc1)=N[C@@H](CC(=O)N1CCN(CC(=O)NCCOCCOCCOc3cccc4c3C(=O)N(C3CCC(=O)NC3=O)C4=O)CC1)c1nnc(C)n1-2 (some centres unmarked) | BRD4 (Homo sapiens) | 110,8 % of control |
| Cc1sc2c(c1C)C(c1ccc(Cl)cc1)=N[C@@H](CC(=O)N1CCN(CC(=O)NCCCCOc3cccc4c3C(=O)N(C3CCC(=O)NC3=O)C4=O)CC1)c1nnc(C)n1-2 (some centres unmarked) | BRD4 (Homo sapiens) | 51,8 % of control |

Ask: Give its Densitometry (% of control), BRD4-immunoreactive band relative to DMSO vehicle value. Item: Cc1ncsc1-c1ccc(CNC(=O)[C@@H]2C[C@@H](O)CN2C(=O)[C@@H](NC(=O)CNC(=O)CN2CCN(C(=O)C[C@@H]3N=C(c4ccc(Cl)cc4)c4c(sc(C)c4C)-n4c(C)nnc43)CC2)C(C)(C)C)cc1
Reply: 61,7 % of control

Ask: What value of Densitometry (% of control), BRD4-immunoreactive band relative to DMSO vehicle has been recorded for this entry: Cc1sc2c(c1C)C(c1ccc(Cl)cc1)=N[C@@H](CC(=O)N(C)CC(=O)NCCCCOc1cccc3c1C(=O)N(C1CCC(=O)NC1=O)C3=O)c1nnc(C)n1-2 (some centres unmarked)
Reply: 79,1 % of control
